tested on: MDA-N; test: NCI tumour cell line growth inhibition, 48 h
Activity calls are given as the source filed them. Cut-off read from the data, not from the text of the source: active = GI50 up to about 1.1 µM and inactive = higher. Residues, ends and D or L forms follow the SMILES beside them. *: point of attachment. Boc = CC(C)(C)OC(=O)*
Recorded GI50 by entry

Below, 2 compounds whose answers are already recorded.
Challenge: Identify measured GI50 associated with `N#C/C=C\c1ccc(-c2cc(C(F)(F)F)cc(C(F)(F)F)c2)o1`
Response given: 22 µM (inactive)

Challenge: Determine from records and report GI50 for O=C(Nc1ccn(C2CC(I)C(COC(c3ccccc3)(c3ccccc3)c3ccccc3)O2)c(=O)n1)c1ccccc1 (centres undefined)
Response given: 7.91 µM (inactive)

Further cases:
Challenge: Give reported GI50 value for CCOC(=O)CCC(C(=O)OCC)n1nc2ccc(Nc3c(C)[n+]([O-])c4cc(F)c(OCC)cc4[n+]3[O-])cc2n1 (centres undefined)
Response given: > 100 µM (inactive)

Challenge: Input `COc1ccc(-c2cc(=O)c3ccc(O)cc3o2)cc1OC` , output reported GI50.
Response given: 47.6 µM (inactive)

Challenge: Read off the recorded GI50 for FC(F)(F)c1ccc2c(c1)nc(Cc1ccccc1)n2C[C@@H]1CCCN2CCCCC12 (some centres undefined)
Response given: 12.7 µM (inactive)

Challenge: Recall and state the measured GI50 for CC(=O)OCC(OC(C)=O)C(OC(C)=O)C(OC(C)=O)C(C=NN(C(C)=O)S(=O)(=O)c1ccc(/C=C2\NC(=O)NC2=O)cc1)OC(C)=O (centres undefined) .
Response given: > 100 µM (inactive)

Challenge: For `[N-]=[N+]=Nc1c(Cc2ccccc2)c(Cl)nc2ccccc12` , write its GI50.
Response given: 21.9 µM (inactive)

Challenge: Give the reported value of GI50 for this record: `O=S(=O)(O)c1cc(/N=N/c2cccc3ccccc23)c(O)c2ncccc12`
Response given: 58.3 µM (inactive)

Challenge: Using the record for `COc1ccc(-c2nnc3nc4ccccc4n3c2O)cc1` , state its measured GI50.
Response given: > 100 µM (inactive)

Challenge: Recall and state the measured GI50 for COC(=O)C(Cc1c[nH]c2ccccc12)NC(=O)C(Cc1c[nH]c2ccccc12)NC(=O)C(Cc1c[nH]c2ccccc12)NC(=O)C(Cc1c[nH]c2ccccc12)NC(=O)C(Cc1c[nH]c2ccccc12)NC(=O)C(Cc1c[nH]c2ccccc12)NC(=O)OC(C)(C)C (centres undefined) (Boc-WWWWWW-OMe; configuration not given here) .
Response given: 41.6 µM (inactive)
